test system: myelofibrosis model mice; assay: Myelofibrosis model induced by rh EPO; format: in vivo, Kunming mice; set-up: unit not given here; conditions: peripheral blood; 10 mg/kg subcutaneous twice a day, 28 days
No end group written: not given here.
QUANTITY NAME: Hb

Below, 2 sequences whose answers are already recorded.
SEQ	Hb
RGADRAGGGGPRCYCGE (cysteine pairing not given here) [Polypeptide IV]	155 ± 16
RGADRAGGGGPRCWRGE [Polypeptide I]	143 ± 23

Give Hb for all sequences that follow.
1. RGADRAGGGGPRCYRGE [Polypeptide III]
2. RGADRAGGGGPRCWCGE (cysteine pairing not given here) [Polypeptide II]

[reply]
1: 145 ± 17; 2: 151 ± 19
